Recorded Trimeric HA Binding: RLU by entry
Target desc: recombinant homotrimeric HA A/northern shoveler/California/HKWF115/07 H6N4 (Influenza A virus A/northern shoveler/California/HKWF115/2007(H6N1))
Assay remarks: protein microarray, purified IgG, trimeric HA
Experimental context: remark: other sources report otherwise
Output spec: scalar in RLU, unitless text.

Examples with answers:
| Binder | Reported metric | Measurement |
| --- | --- | --- |
| TCN-534 (5249_B02) (antibody, V domains shown) VH: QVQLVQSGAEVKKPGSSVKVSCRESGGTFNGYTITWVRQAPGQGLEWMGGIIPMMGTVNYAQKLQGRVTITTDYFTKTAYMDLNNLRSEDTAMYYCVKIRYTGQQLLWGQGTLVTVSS VL: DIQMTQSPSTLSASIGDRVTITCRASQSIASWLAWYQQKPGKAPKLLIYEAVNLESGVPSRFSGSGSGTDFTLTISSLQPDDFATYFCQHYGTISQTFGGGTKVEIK | Trimeric HA Binding: RLU | 21700 |
| TCN-552 (5249_I23) (antibody, V domains shown) VH: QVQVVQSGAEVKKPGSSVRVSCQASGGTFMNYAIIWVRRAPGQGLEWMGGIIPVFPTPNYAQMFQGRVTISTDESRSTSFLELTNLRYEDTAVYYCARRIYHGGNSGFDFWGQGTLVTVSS VL: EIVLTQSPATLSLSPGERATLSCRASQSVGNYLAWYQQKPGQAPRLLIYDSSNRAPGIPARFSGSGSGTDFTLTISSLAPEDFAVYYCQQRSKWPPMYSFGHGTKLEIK | Trimeric HA Binding: RLU | 8970 |
| TCN-538 (3206_O17) (antibody, V domains shown) VH: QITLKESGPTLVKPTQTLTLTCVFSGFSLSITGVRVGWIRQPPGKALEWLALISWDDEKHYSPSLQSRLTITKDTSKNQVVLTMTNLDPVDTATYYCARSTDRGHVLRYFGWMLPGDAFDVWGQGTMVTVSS VL: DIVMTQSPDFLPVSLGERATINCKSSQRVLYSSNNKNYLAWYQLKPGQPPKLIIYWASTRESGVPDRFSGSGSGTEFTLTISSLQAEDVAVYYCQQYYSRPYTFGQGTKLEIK | Trimeric HA Binding: RLU | 11400 |

Exam item: Could you tell me which Trimeric HA Binding: RLU is on file for TCN-543 (5081_G23) (antibody, V domains shown) VH: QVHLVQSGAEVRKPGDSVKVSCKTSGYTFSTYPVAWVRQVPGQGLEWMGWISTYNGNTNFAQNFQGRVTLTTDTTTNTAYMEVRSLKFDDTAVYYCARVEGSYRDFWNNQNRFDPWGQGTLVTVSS VL: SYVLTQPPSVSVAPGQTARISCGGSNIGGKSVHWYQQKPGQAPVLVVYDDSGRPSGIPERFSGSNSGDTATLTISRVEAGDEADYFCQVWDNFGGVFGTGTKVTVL ?
Marked response: 101

Exam item: Would you kindly repeat that for TCN-527 (5086_C06) (antibody, V domains shown) VH: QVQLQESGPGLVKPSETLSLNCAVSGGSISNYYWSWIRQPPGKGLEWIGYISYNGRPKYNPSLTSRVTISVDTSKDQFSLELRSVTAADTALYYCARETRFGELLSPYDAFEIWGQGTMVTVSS VL: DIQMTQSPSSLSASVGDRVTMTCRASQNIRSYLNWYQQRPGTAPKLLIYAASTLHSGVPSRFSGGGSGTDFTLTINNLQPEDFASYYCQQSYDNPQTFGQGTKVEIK ?
Marked response: 13200

Exam item: Try this binder next: TCN-535 (5246_P19) (antibody, V domains shown) VH: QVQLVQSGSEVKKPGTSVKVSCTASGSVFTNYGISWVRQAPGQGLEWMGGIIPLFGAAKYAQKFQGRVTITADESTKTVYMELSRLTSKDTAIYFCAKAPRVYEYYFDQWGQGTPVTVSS VL: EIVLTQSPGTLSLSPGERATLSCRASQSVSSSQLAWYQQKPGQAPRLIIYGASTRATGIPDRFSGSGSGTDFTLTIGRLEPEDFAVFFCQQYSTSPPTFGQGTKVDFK
Marked response: 5880
